Recorded values, source paper PMC6471528.

# SUBJECT OF TEST: COX-1 (Ovis aries)
# Construct: purchased Cayman Chemical Company
# Sequence (P05979 25-600): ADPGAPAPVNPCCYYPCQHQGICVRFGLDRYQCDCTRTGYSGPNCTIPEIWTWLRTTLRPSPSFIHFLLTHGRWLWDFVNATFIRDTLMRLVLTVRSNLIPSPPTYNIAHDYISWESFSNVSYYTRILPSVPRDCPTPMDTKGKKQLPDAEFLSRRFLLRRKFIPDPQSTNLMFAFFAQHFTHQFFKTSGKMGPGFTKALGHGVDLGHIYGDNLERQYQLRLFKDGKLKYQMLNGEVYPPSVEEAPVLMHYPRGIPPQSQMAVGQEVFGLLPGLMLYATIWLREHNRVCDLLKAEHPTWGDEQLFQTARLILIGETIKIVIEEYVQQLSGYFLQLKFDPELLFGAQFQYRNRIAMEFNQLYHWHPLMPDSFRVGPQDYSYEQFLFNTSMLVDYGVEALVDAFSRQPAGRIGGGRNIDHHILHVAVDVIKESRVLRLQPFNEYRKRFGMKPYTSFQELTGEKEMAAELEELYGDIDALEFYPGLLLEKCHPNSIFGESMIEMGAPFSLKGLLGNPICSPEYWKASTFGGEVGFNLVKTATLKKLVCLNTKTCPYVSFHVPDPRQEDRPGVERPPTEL
# ASSAY REMARKS: COX colorimetric inhibitor screening assay (TMPD oxidation), COX-1
# Assay type: biochemical
# CONDITION DETAILS: 2 min of incubation
PROPERTY: inhibitory activity on COX-1 (in words)

Cc1cc(C)c(C(=O)NCC(=O)N/N=C/c2cccc3ccccc23)c(S)n1 [PS34, N′-naphtylmethylene derivative] | no inhibitory activity
Cc1cc(C)c(C(=O)NCC(=O)N/N=C/c2ccc(C(F)(F)F)cc2)c(S)n1 [PS38] | no inhibitory activity
Cc1cc(C)c(C(=O)NCC(=O)N/N=C/c2c3ccccc3cc3ccccc23)c(S)n1 [PS35] | no inhibitory activity
Cc1cc(C)c(C(=O)NCC(=O)N/N=C/c2cc([N+](=O)[O-])ccc2Cl)c(S)n1 [PS39] | no inhibitory activity

Query: State its inhibitory activity on COX-1 (in words): Cc1cc(C)c(C(=O)NCC(=O)N/N=C/c2ccc(Cl)cc2Cl)c(S)n1 [PS41]
Reply: no inhibitory activity

* * *

Provide the recorded IC50 for the entries that follow.
# SUBJECT OF TEST: COX-2 (Homo sapiens, UniProt P35354)
# Construct: purchased Cayman Chemical Company
# Sequence (P35354 18-604): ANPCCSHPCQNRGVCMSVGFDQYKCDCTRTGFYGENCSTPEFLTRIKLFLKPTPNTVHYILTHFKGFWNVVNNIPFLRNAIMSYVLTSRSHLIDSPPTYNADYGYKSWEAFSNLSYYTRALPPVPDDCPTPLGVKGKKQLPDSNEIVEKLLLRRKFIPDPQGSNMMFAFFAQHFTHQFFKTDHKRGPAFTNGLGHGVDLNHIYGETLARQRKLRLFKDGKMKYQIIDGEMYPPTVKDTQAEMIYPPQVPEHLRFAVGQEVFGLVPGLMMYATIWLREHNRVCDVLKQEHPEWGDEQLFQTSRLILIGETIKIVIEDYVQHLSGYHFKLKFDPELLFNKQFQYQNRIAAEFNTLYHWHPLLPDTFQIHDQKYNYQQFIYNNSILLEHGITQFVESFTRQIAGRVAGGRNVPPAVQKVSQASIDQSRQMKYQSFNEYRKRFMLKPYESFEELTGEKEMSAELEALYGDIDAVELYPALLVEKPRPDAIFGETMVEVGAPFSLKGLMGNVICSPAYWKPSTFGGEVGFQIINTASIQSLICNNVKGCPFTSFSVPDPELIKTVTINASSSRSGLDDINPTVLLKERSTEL
# ASSAY REMARKS: COX colorimetric inhibitor screening assay (TMPD oxidation), COX-2
# Type: biochemical
# CONDITION DETAILS: read-out: IC50 (µM),(SD) COX-2
# Experimental: The compounds were investigated for their potencies to inhibit COX-1 and COX-2 enzymes by the colorimetric inhibitor screening assay. Selectivity of the compounds to COX-1 or to COX-2 was assessed by calculation of the IC50 ratios. […] The test is based on the oxidation of TMPD during the reduction of PGG2 (prostaglandin G2) to PGH2, which is reflected by a change in colour, measured spectrophotometrically (Victor2 microspectrophotometer, PerkinElmer Waltham, MA, USA). […]
Answers are plain numbers, in µM.

Cc1cc(C)c(C(=O)NCC(=O)N/N=C/c2ccc([N+](=O)[O-])cc2)c(S)n1 | 731
Cc1ccc(/C=N/NC(=O)CNC(=O)c2c(C)cc(C)nc2S)cc1 | 143

Each of the following entries comes with a recorded value; kindly state IC50 for each.
1. CCOc1ccccc1/C=N/NC(=O)CNC(=O)c1c(C)cc(C)nc1S
2. Cc1cc(C)c(C(=O)NCC(=O)N/N=C/c2ccccc2)c(S)n1

Reply:
1. 177
2. 139
